Tested on: Plasmodium falciparum
PROCEDURE_DETAILS: Antiplasmodial activity against Plasmodium falciparum K1 infected in human blood by [3H]hypoxanthine incorporation assay
Format: functional, organism-based
pIC50: −log10 of the molar value.
ASSAY_ENDPOINT: pIC50

C[C@@H]1CC[C@H]2[C@@H](C)C(=O)O[C@@H]3O[C@@]4(C)CC[C@@H]1[C@]32OO4    8.19
O=C(CN1CCCC1)NC1CC2(N3CCCCC3)CC(c3ccccc3)C1C(c1ccccc1)C2 (stereo not drawn)    6.96

A: c1ccc(C2CC3(N4CCCCC4)CCN(CCCN4CCCCC4)C2C(c2ccccc2)C3)cc1 (racemic)
B: O=C(CCN1CCCCC1)N1CCC2(N3CCCCC3)CC(c3ccccc3)C1C(c1ccccc1)C2 (racemic)
C: O=C(CCN1CCCCC1)N1CCC2(N3CCCC3)CC(c3ccccc3)C1C(c1ccccc1)C2 (racemic)
D: CN(C)C12CCN(C(=O)CCN3CCCCC3)C(C(c3ccccc3)C1)C(c1ccccc1)C2 (racemic)
# desc sort on pIC50 across 4 molecules In plain terms: list the labels in the order you were asked to.
A, B, C, D

a: CN(C)C12CCN(CCCN3CCCCC3)C(C(c3ccccc3)C1)C(c1ccccc1)C2 (racemic)
b: c1ccc(C2CC3(N4CCCC4)CCN(CCCN4CCCCC4)C2C(c2ccccc2)C3)cc1 (racemic)
Kindly identify which of a and b has the larger recorded pIC50 value. Kindly give the label for the entry you pick.
b

----------
Tested on: Plasmodium falciparum
PROCEDURE_DETAILS: Antiplasmodial activity against Plasmodium falciparum K1 infected in human blood by [3H]hypoxanthine incorporation assay
Assay type: functional, organism-based
ASSAY_ENDPOINT: IC50 (nM)

CCN1CCN(CCN2CCC3(N4CCCC4)CC(c4ccccc4)C2C(c2ccccc2)C3)CC1 (racemic)    180

1: CCN1CCN(CCN2CCC3(N(C)C)CC(c4ccccc4)C2C(c2ccccc2)C3)CC1 (racemic)
2: CCN1CCN(CCN2CCC3(N4CCCCC4)CC(c4ccccc4)C2C(c2ccccc2)C3)CC1 (racemic)
Decide: 1 or 2 , by lowest recorded IC50. Respond using the label that marks the chosen record.
2
(2: 140 nM, 1: 340 nM)

----------
// MSD lookup, one value per entry
System: Mus musculus
PROCEDURE_DETAILS: Toxicity in albino mouse assessed as mean survival days at 30 mg/kg, ip for 4 days
Type: organism-based
Parameters: dose 30 mg/kg, route intraperitoneal
ASSAY_CONTEXT: in vivo, 96 h
Write the value in days as a bare number.

Please review the entries below; each comes with its answer.
CCN1CCN(CCN2CCC3(N4CCCC4)CC(c4ccccc4)C2C(c2ccccc2)C3)CC1 (racemic)    7
CCN1CCN(CCN2CCC3(N4CCCCC4)CC(c4ccccc4)C2C(c2ccccc2)C3)CC1 (racemic)    7
c1ccc(C2CC3(N4CCCC4)CCN(CCCN4CCCCC4)C2C(c2ccccc2)C3)cc1 (racemic)    7

Proceeding to the next compound to report its MSD.
Hey, Mus musculus data for O=C(CCN1CCCCC1)N1CCC2(N3CCCC3)CC(c3ccccc3)C1C(c1ccccc1)C2 (racemic) : MSD came out at 6.7

----------
PROCEDURE_DETAILS: Selectivity index, ratio of IC50 for rat L6 cells to IC50 for Plasmodium falciparum K1
Format: toxicity, cell-based
ASSAY_CONTEXT: read-out: Ratio IC50
ASSAY_ENDPOINT: selectivity ratio
Please reply with the number alone, leaving off any unit.

CCN1CCN(CCN2CCC3(N(C)C)CC(c4ccccc4)C2C(c2ccccc2)C3)CC1 (racemic)    170
O=C(CN1CCCC1)NC1CC2(N3CCCCC3)CC(c3ccccc3)C1C(c1ccccc1)C2 (configuration not stated)    191
O=C(CCN1CCCCC1)N1CCC2(N3CCCCC3)CC(c3ccccc3)C1C(c1ccccc1)C2 (racemic)    336

Reported selectivity ratio for CN(C)C12CCN(CCN3CCCC3)C(C(c3ccccc3)C1)C(c1ccccc1)C2 (configuration not stated) was 136

Noted for c1ccc(C2CC3(N4CCCC4)CCN(CCCN4CCCCC4)C2C(c2ccccc2)C3)cc1 (racemic) : its selectivity ratio reads 287

Value of measured selectivity ratio for the entry c1ccc(C2CC3(N4CCCC4)CCN(CCN4CCCC4)C2C(c2ccccc2)C3)cc1 (configuration not stated) : 116

Looking up CCN1CCN(CCN2CCC3(N4CCCC4)CC(c4ccccc4)C2C(c2ccccc2)C3)CC1 (racemic) , I see its selectivity ratio listed as 298

Notebook: O=C(CCN1CCCCC1)N1CCC2(N3CCCC3)CC(c3ccccc3)C1C(c1ccccc1)C2 (racemic) , selectivity ratio read as 300

Record summary for c1ccc(C2CC3(N4CCCCC4)CCN(CCCN4CCCCC4)C2C(c2ccccc2)C3)cc1 (racemic) : reported selectivity ratio = 1150

meta.source: ChEMBL document CHEMBL1221362
